Value source: patent US7998989B2

target: α1G T-type calcium channel (Homo sapiens, UniProt O43497); construct: host or cells: HEK293; assay: Assay for % inhibiting activity against T-type calcium channel using FDSS6000 (fluo-3 calcium imaging, KCl activation); assay type: cell-based; details: HEK293, 10 μM; HEK293 cells stably expressing α1G T-type calcium channel and Kir2.1; compounds of the examples; read-out: FDSS (% inhibition)/10uM
Sequence (O43497 whole entry): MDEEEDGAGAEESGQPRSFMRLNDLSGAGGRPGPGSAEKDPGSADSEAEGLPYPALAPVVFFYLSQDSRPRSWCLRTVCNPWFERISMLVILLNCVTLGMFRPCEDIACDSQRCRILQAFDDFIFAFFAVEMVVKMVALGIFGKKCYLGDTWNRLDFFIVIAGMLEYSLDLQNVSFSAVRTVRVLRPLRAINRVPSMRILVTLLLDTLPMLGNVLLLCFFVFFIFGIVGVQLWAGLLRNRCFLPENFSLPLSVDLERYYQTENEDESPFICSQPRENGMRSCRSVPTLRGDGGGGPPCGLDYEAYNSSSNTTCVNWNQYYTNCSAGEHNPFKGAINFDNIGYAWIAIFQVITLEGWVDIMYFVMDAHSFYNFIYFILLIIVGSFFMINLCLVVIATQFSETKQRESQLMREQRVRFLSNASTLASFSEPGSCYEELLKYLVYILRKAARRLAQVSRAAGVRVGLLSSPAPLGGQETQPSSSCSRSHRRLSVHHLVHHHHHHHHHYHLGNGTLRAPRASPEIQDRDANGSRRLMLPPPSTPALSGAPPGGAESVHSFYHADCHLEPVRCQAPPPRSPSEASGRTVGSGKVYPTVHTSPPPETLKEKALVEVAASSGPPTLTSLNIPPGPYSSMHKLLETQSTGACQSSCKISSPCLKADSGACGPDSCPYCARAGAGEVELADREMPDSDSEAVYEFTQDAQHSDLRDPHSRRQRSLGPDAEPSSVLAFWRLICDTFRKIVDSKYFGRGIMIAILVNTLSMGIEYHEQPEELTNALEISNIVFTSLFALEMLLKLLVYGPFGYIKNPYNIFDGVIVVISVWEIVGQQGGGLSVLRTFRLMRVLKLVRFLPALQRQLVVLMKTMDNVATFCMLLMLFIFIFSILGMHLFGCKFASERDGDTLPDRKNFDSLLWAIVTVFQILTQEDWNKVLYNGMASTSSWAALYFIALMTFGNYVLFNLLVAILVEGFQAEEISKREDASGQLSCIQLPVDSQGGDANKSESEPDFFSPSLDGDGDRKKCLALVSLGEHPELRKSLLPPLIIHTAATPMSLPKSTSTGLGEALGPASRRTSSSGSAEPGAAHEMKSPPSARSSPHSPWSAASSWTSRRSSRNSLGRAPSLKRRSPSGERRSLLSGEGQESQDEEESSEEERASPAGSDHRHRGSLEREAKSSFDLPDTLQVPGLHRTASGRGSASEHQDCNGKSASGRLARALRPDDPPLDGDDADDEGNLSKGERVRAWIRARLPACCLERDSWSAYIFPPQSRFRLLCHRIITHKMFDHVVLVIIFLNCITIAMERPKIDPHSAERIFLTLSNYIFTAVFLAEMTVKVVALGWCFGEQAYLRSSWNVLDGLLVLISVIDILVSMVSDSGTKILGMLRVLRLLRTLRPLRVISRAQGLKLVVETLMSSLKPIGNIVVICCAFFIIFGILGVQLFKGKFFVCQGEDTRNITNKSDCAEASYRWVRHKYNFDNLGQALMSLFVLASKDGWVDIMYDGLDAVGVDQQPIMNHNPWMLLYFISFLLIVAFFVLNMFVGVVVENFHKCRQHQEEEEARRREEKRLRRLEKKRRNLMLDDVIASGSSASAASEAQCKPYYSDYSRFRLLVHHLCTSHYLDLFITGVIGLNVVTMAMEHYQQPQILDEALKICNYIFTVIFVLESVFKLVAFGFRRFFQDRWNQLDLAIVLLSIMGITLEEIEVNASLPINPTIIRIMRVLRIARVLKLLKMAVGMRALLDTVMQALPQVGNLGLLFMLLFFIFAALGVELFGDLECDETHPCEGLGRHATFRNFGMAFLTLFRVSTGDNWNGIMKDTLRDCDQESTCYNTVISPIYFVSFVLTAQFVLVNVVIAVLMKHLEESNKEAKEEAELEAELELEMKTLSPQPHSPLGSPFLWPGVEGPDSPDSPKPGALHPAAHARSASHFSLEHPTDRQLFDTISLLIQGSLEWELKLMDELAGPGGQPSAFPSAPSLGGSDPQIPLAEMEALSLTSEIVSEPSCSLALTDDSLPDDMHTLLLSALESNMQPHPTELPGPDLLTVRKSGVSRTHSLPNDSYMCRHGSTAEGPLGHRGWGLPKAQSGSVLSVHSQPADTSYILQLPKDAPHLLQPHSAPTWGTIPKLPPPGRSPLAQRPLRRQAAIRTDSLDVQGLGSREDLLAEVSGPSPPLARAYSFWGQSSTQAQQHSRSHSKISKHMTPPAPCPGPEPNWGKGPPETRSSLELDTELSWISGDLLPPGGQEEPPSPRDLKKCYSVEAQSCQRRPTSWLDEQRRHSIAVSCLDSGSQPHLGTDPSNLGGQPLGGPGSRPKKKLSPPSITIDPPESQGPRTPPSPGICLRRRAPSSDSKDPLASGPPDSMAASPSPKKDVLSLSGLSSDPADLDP
outcome.measure: inhibition at 10 µM (%)
The figure you give is taken to be in %; do not add the unit.

# annotated cases, reported inhibition at 10 µM shown
INSERT INTO assay_data (molecule, outcome_measure, unit_descriptor, measured_result) VALUES
  ('CC1SC(=NC2CCCCCC2)N(C)C1CC(=O)Nc1ccc(F)cc1.Cl (centres unmarked) [KHG24518, hydrochloride]', 'inhibition at 10 µM', '%', 50.7),
  ('CCCCN1C(=NC2CCCCC2)SCC1CC(=O)Nc1ccc(F)cc1.Cl (centres unmarked) [KHG24284, hydrochloride]', 'inhibition at 10 µM', '%', 44.6),
  ('CCCCc1ccc(NC(=O)CC2CSC(=NC3CCCCC3)N2Cc2ccccc2)cc1.Cl (centres unmarked) [KHG24406, hydrochloride]', 'inhibition at 10 µM', '%', 34.4),
  ('CCCCN1C(=NC2CCCCC2)SCC1CC(=O)Nc1ccc(Cl)cc1.Cl (centres unmarked) [KHG24262, hydrochloride]', 'inhibition at 10 µM', '%', 53),
  ('CN1C(=NC2CCCCC2)SCC1CC(=O)Nc1cccc(Cl)c1Cl.Cl (centres unmarked) [KHG24530, hydrochloride]', 'inhibition at 10 µM', '%', 38.5);

// lookup inhibition at 10 µM for Cc1ccc(NC(=O)CC2CSC(=NC3CCCCC3)N2C)cc1F.Cl (centres unmarked) [KHG24091, hydrochloride]
30.3

Which measured inhibition at 10 µM value corresponds to CC(C)N1C(=NC23CC4CC(CC(C4)C2)C3)SCC1CC(=O)Nc1cc(C(F)(F)F)cc(C(F)(F)F)c1.Cl (centres unmarked) [KHG24828, hydrochloride] ?
35.4

# input molecule: CCCCN1C(=NC2CCCCC2)SCC1CC(=O)Nc1cc(Cl)cc(Cl)c1.Cl (centres unmarked) [KHG24416, hydrochloride] ; wanted: its inhibition at 10 µM
59.8

###

# melting point per entry

INSERT INTO measurements (compound, outcome_measure, measured_result) VALUES
  ('CC1SC(=NC2CCCC2)N(C)C1CC(=O)Nc1ccc(C(C)(C)C)cc1.Cl (centres unmarked)', 'melting point', '220 to 223 °C'),
  ('COc1ccc(NC(=O)CC2CSC(=NC3CCCCC3)N2C)cc1OC.Cl (centres unmarked)', 'melting point', '233 to 234 °C'),
  ('CN1C(=NC2CCCCCC2)SCC1C(=O)Nc1ccc(Oc2ccccc2)cc1 (centres unmarked)', 'melting point', '278.6 °C'),
  ('Br.CN1C(=NC2CCCCCC2)SCC1C(=O)Nc1ccc(Oc2ccccc2)cc1 (centres unmarked)', 'melting point', '149.5 °C'),
  ('CCCCN1C(=NC2CCCCC2)SCC1CC(=O)Nc1cc(Cl)cc(Cl)c1.Cl (centres unmarked)', 'melting point', '153 to 154 °C'),
  ('CC1SC(=NC2CCCCC2)N(C)C1CC(=O)Nc1cc(Cl)cc(Cl)c1 (centres unmarked)', 'melting point', '264 to 265 °C'),
  ('CCCN1C(=NC2CCCCC2)SCC1CC(=O)Nc1ccc(C)c(Cl)c1.Cl (centres unmarked)', 'melting point', '204.9 °C'),
  ('CN1C(=NC2CCCCC2)SCC1CC(=O)Nc1cccc(F)c1.Cl (centres unmarked)', 'melting point', '238 to 239.5 °C');

Entry under review: COc1ccc(CNC(=O)CC2CSC(=NC3CCCC3)N2C)cc1.Cl (centres unmarked) . Reported melting point?
172 to 173.5 °C

# get_value(readout='melting point', item= CN1C(=NC2CCCC2)SCC1CC(=O)NCc1ccc(Cl)cc1.Cl (centres unmarked) )
180 to 182 °C

###

target: α1G T-type calcium channel (Homo sapiens, UniProt O43497); construct: host or cells: HEK293; assay: Assay for % inhibiting activity against T-type calcium channel using FDSS6000 (fluo-3 calcium imaging, KCl activation); assay type: cell-based; settings: HEK293, 10 μM; HEK293 cells stably expressing α1G T-type calcium channel and Kir2.1; compounds of the examples; read-out: FDSS (% inhibition)/10uM
The label depends only on inhibition at 10 µM: Fulfilled if it is at least 50%, Not fulfilled if it is smaller.

Previously resolved entries follow.
INSERT INTO assay_data (compound, group_label) VALUES
  ('CCCN1C(=NC2CCCCC2)SCC1CC(=O)Nc1ccc(Br)cc1.Cl (stereo not drawn) [KHG24288, hydrochloride]', 'Fulfilled'),
  ('CCCCN1C(=NC23CC4CC(CC(C4)C2)C3)SCC1CC(=O)Nc1ccc(C)cc1.Cl (stereo not drawn) [KHG24781, hydrochloride]', 'Not fulfilled'),
  ('CN1C(=NC2CCCCCC2)SCC1C(=O)NCc1cccc(F)c1.Cl (stereo not drawn) [KHG24666, hydrochloride]', 'Not fulfilled');

Below: the item to evaluate.
Quick check, inhibition at 10 µM >= 50%? CCN1C(=NC23CC4CC(CC(C4)C2)C3)SCC1CC(=O)Nc1ccc(C(C)C)cc1.Cl (stereo not drawn) [KHG24819, hydrochloride]
Fulfilled

###

outcome.measure: melting point

INSERT INTO results (compound, measured_result) VALUES
  ('CN1C(=NC2CCCCC2)SCC1CC(=O)Nc1ccc(F)cc1F.Cl (stereo not drawn)', '206 to 208 °C'),
  ('COc1ccc(N=C2SCC(CC(=O)Nc3ccc(Cl)cc3)N2C)cc1.Cl (stereo not drawn)', '250 to 253 °C'),
  ('CC1SC(=NC2CCCCC2)N(C)C1CC(=O)Nc1ccc(F)cc1.Cl (stereo not drawn)', '267 to 269 °C'),
  ('CCc1ccc(NC(=O)C2CSC(=NC3CCCCCC3)N2C)cc1 (stereo not drawn)', '194 to 195 °C'),
  ('COc1ccc(NC(=O)CC2CSC(=NC3CCCCC3)N2C)cc1Cl.Cl (stereo not drawn)', '233.5 to 235 °C'),
  ('CC(C)c1ccc(NC(=O)CC2C(C)SC(=NC3CCCCCC3)N2C)cc1.Cl (stereo not drawn)', '260 to 262 °C'),
  ('Cc1ccc(NC(=O)CC2C(C)SC(=NC3CCCC3)N2C)cc1.Cl (stereo not drawn)', '228 to 229 °C'),
  ('CC1SC(=NC2CCCCC2)N(C)C1CC(=O)Nc1ccccc1.Cl (stereo not drawn)', '231 to 234 °C'),
  ('Cc1ccc(NC(=O)CC2CSC(=NC34CC5CC(CC(C5)C3)C4)N2C)c(Cl)c1.Cl (stereo not drawn)', '234 to 236 °C'),
  ('CN1C(=NC2CC2)SCC1CC(=O)Nc1ccc(F)cc1.Cl (stereo not drawn)', '252 to 253.5 °C');

Item CN1C(=Nc2ccc(C#N)cc2)SCC1CC(=O)Nc1ccc(Cl)cc1F.Cl (stereo not drawn) has what recorded melting point?
136 to 137 °C

Given CCCN1C(=NC2CCCCC2)SCC1CC(=O)Nc1ccc(C(F)(F)F)cc1.Cl (stereo not drawn) , state its recorded melting point.
173.6 to 174.8 °C

Bench note: what melting point did CN1C(=Nc2ccc(C(F)(F)F)cc2)SCC1CC(=O)Nc1ccc(Cl)cc1F.Cl (stereo not drawn) show?
222 to 223 °C

I have this compound here, Cc1ccc(NC(=O)CC2CSC(=NC3CC3)N2C)c(Cl)c1.Cl (stereo not drawn) , and I need its recorded melting point.
212 to 212.5 °C

Recorded melting point for Cl.O=C(CC1CSC(=NC2CCCCC2)N1C1CC1)Nc1ccc(Br)cc1 (stereo not drawn) , please?
188.9 °C

###

target: α1G T-type calcium channel (Homo sapiens); construct: host or cells: HEK293; assay: Assay for % inhibiting activity against T-type calcium channel using FDSS6000 (fluo-3 calcium imaging, KCl activation); assay type: cell-based; conditions: HEK293, 10 μM; HEK293 cells stably expressing α1G T-type calcium channel and Kir2.1; compounds of the examples; read-out: FDSS (% inhibition)/10uM
outcome.measure: inhibition at 10 µM (%)
Your answer is read as %, so omit the unit and give the number.

INSERT INTO assay_data (compound, measured_result) VALUES
  ('CC(C)c1ccc(NC(=O)CC2CSC(=NC3CCCC3)N2C)cc1.Cl (stereo not shown) [KHG24115, hydrochloride]', 49.9),
  ('CCc1ccc(NC(=O)CC2CSC(=NC3CCCC3)N2C)cc1.Cl (stereo not shown) [KHG24092, hydrochloride]', 43.1),
  ('CCCCN1C(=NC2CCCCC2)SCC1CC(=O)Nc1ccc(C)cc1Cl.Cl (stereo not shown) [KHG24421, hydrochloride]', 65.8),
  ('CCc1ccc(NC(=O)CC2CSC(=NC34CC5CC(CC(C5)C3)C4)N2C(C)C)cc1.Cl (stereo not shown) [KHG24832, hydrochloride]', 46.5),
  ('Cc1cc(Cl)c(NC(=O)CC2CSC(=NC3CCCCC3)N2C)cc1Cl.Cl (stereo not shown) [KHG24071, hydrochloride]', 52.1),
  ('CC1SC(=NC2CCCCC2)N(C)C1CC(=O)Nc1ccc(Br)cc1 (stereo not shown)', 52.4),
  ('CCc1ccc(NC(=O)CC2CSC(=NC3CCCCC3)N2C2CC2)cc1.Cl (stereo not shown) [KHG24272, hydrochloride]', 37.6),
  ('CC(C)N1C(=NC23CC4CC(CC(C4)C2)C3)SCC1CC(=O)Nc1ccc(C(F)(F)F)cc1.Cl (stereo not shown) [KHG24826, hydrochloride]', 46.5);

# query: inhibition at 10 µM of entry CCCCc1ccc(NC(=O)CC2CSC(=NC3CC3)N2C)cc1.Cl (stereo not shown) [KHG24152, hydrochloride]
33.9

Fill blank: measured inhibition at 10 µM of the compound CCN1C(=NC2CCCCC2)SCC1CC(=O)Nc1ccc(C)cc1.Cl (stereo not shown) [KHG24279, hydrochloride] is ____.
44.1

I have this compound here, CC1SC(=NC2CCCCC2)N(C)C1CC(=O)Nc1cccc(F)c1.Cl (stereo not shown) [KHG24636, hydrochloride] , and I need its recorded inhibition at 10 µM.
35.2

Request the reported inhibition at 10 µM associated with CN1C(=NCCc2ccccc2)SCC1CC(=O)Nc1cc(C(F)(F)F)cc(C(F)(F)F)c1.Cl (stereo not shown) [KHG24216, hydrochloride]
36

For CCCCN1C(=NC23CC4CC(CC(C4)C2)C3)SCC1CC(=O)Nc1ccc(C(F)(F)F)cc1.Cl (stereo not shown) [KHG24777, hydrochloride] , what is its reported inhibition at 10 µM?
49.2
